# credit: the supplement of paper PMC12420376

- Tested on: OVCAR8
- testDetails: drug sensitivity score (DSS2) on cancer cell count; higher = more sensitive; extreme values may be limits of the assay
- cond: co-cultured fibroblast: WI38; 72 h
Each entry below lists one item and its recorded drug sensitivity score value.
Give the value, in units of DSS, as a plain number.

Use the examples below as a reference point.
O=C(Nc1ccc(OC(F)(F)Cl)cc1)c1cnc(N2CC[C@@H](O)C2)c(-c2cc[nH]n2)c1 10.5
COC(=O)N[C@@H](C)CNc1nccc(-c2cn(C(C)C)nc2-c2cc(Cl)cc(NS(C)(=O)=O)c2F)n1 0
O=C(O)CC[C@H]1CC[C@@](c2cc(F)ccc2F)(S(=O)(=O)c2ccc(Cl)cc2)CC1 0
Cc1cc(-c2nc(-c3ccc(OC(F)(F)F)cc3)no2)nn1Cc1ccnc(N2CCN(C3CC3)CC2)c1 0
Cc1[nH]nc(C(F)(F)F)c1Cc1sc2c(c1C(=O)N1C[C@](C)(O)CO1)c(=O)n(C)c(=O)n2C(C)C 0

Task: Fill in: drug sensitivity score of CN1CCN(c2nc(C3=C(c4c[nH]c5ccccc45)C(=O)NC3=O)c3ccccc3n2)CC1 is ___
Output: 2.6

Task: Continue with CNC(=O)c1ccc(-c2cnc3ncc(Cc4ccc5ncccc5c4)n3n2)cc1F
Output: 0

Task: Continue with C[C@H]1Oc2cc(cnc2N)-c2c(nn(C)c2C#N)CN(C)C(=O)c2ccc(F)cc21
Output: 8.7

Task: Continue with CN(C)C1CCN(C(=O)c2ccc(NC(=O)Nc3ccc(-c4nc(N5CCOCC5)nc(N5CCOCC5)n4)cc3)cc2)CC1
Output: 2

Task: Continue with O=C(NOCCO)c1ccc2cncn2c1Nc1ccc(I)cc1F
Output: 0

====

- Tested on: OVCAR8
- testDetails: drug sensitivity score (DSS2) on cancer cell count; higher = more sensitive; extreme values may be limits of the assay
- cond: co-cultured fibroblast: WI38; 72 h
Each entry below lists one item and its recorded drug sensitivity score value.
Give the value, in units of DSS, as a plain number.

Use the examples below as a reference point.
compound	measuredResult
Cn1cc(C2=C(c3cn(C4CCN(Cc5ccccn5)CC4)c4ccccc34)C(=O)NC2=O)c2ccccc21 [Enzastaurin]	6.4
C/C=C1\NC(=O)[C@H]2CSSCC/C=C/[C@H](CC(=O)N[C@H](C(C)C)C(=O)N2)OC(=O)[C@H](C(C)C)NC1=O [Romidepsin]	26.5
O=C(Nc1ccncc1)C(=O)c1cn(Cc2ccc(Cl)cc2)c2ccccc12 [Indibulin]	26.6
CC(C)n1cnc2c(NCCc3ccc(O)cc3)nc(-c3csc4ccccc34)nc21 [StemRegenin 1]	0
COc1cc2c(cc1OCCCN1CCCC1)N=C(N)C21CCC1 [A-366]	0

Task: Fill in: drug sensitivity score of Nc1ccn([C@@H]2O[C@H](CO)[C@@H](O)C2(F)F)c(=O)n1 [Gemcitabine] is ___
Output: 27.2

Task: Continue with COc1ccc(-c2ccc3ncc4c(c3c2)n(-c2ccc(N3CCNCC3)c(C(F)(F)F)c2)c(=O)n4C)cn1 [NVP-BGT226]
Output: 12

====

Each entry below lists one item and its recorded drug sensitivity score value.
- System: OVCAR8
- testDetails: drug sensitivity score (DSS2) on cancer cell count; higher = more sensitive; extreme values may be limits of the assay
- cond: co-cultured fibroblast: BJHTERT; 72 h
Answer format: value, then unit.

Task: Fill in: drug sensitivity score of CC(=O)N(O)CCCCCNC(=O)CCC(=O)N(O)CCCCCNC(=O)CCC(=O)N(O)CCCCCN [Deferoxamine] is ___
Output: 3.6 DSS
